The measured values listed here are drawn from patent US20230295068A1.

I'd appreciate it if you could supply Number of cells values for the items below.
Tested on: ND3 neuronal cell line
Experiment: Measurement of nerve growth stimulation effect (neurite bearing assay, neurite length assay, number of cells)
Assay type: cell-based
Details: 100 μM compound; ND3 cells, 6 h; relative cell number, DMSO well = 1
Experimental: To evaluate the nerve growth stimulation effect, neurite bearing assay (proportion of neurite-bearing cells) and neurite length assay (neurite length) were analyzed with reference to the method of Topalli et al. (Brain Research 1030 (2004), pp. 116-124). An ND3 neuronal cell line (European Collection of Authenticated Cell Cultures) was seeded in a DMEM medium containing 10% fetal bovine serum (0.6×10^4 cells/1 mL) in a 24-well plate. […]
Give bare numbers.

# annotated cases, reported Number of cells shown
| MOLECULE | ASSAYED_SYSTEM | READING |
| --- | --- | --- |
| COCCCCCCCCCCCCC1=C(C)C(=O)CC1(C)C [Compound 70] | ND3 neuronal cell line | 0.73 |
| CC1=C(CCCCCCCCCCCCCCC#N)C(C)(C)CC1=O [Compound 75] | ND3 neuronal cell line | 0.80 |
| COCCCCCCCCCCCCCCCC1=C(C)CCCC1(C)C [Compound 64] | ND3 neuronal cell line | 0.53 |
| COCCCCCCCCCCCCCCCC1=C(C)/C(=N/OC)CCC1(C)C [Compound 68] | ND3 neuronal cell line | 0.89 |

--- query ---
Name the recorded Number of cells for CCCOCCCCCCCCCCCCC1=C(C)C(=O)CC1(C)C [Compound 71] . 0.07
